The origin of these recorded values is ChEMBL document CHEMBL5257034.

Test system: Mycobacterium tuberculosis
Test: Antibacterial activity against Mycobacterium tuberculosis H37Rv
Type: functional
experimental-readout: MIC (µg/mL)
The answer is to be given in µg/mL; state only the numeric part.

Some solved entries appear below for comparison.
>>> recorded_result("O=C1Nc2cc3c(-c4ccccc4)c(-c4ccccc4)oc(=O)c3cc2C(c2ccc([N+](=O)[O-])cc2)N1 (centres undefined)")
40
>>> recorded_result("NNC(=O)c1ccncc1 [ISONIAZID]")
0.2

The record that follows has no MIC shown yet.
Q: Supply recorded MIC for O=C1Nc2cc3c(-c4ccccc4)c(-c4ccccc4)oc(=O)c3cc2C(c2ccccc2Cl)N1 (centres undefined) here.
Result: 62.5

====

Let's look at some compounds and their measured inhibition (INH).
Tested on: Mus musculus
Assay: Antiinflammatory activity against ear oedema mouse model assessed as inhibition of xylene induced edema
Type: functional
Provide the reading as a plain figure in %.

>>> recorded_result("CS(=O)(=O)c1ccc(-c2nc(S(C)(=O)=O)nn2-c2ccc(Br)cc2)cc1")
70.8
>>> recorded_result("CSc1nc(-c2ccc(S(N)(=O)=O)cc2)n(-c2ccc(Cl)cc2)n1")
80
>>> recorded_result("CS(=O)(=O)c1ccc(-c2nc(S(C)(=O)=O)nn2-c2ccc(Cl)cc2)cc1")
77.2
>>> recorded_result("Cc1ccc(-c2cc(C(F)(F)F)nn2-c2ccc(S(N)(=O)=O)cc2)cc1")
64.9

Please turn your attention to the following entry.
Q: Please indicate inhibition (INH) recorded for `CSc1nc(-c2ccc(S(N)(=O)=O)cc2)n(-c2ccc(F)cc2)n1`
Result: 75

====

Tested on: Plasmodium falciparum
Test: Antiplasmodial activity against Plasmodium falciparum W2 infected in red blood cells (unknown origin) incubated for 72 hrs by LDH assay
Format: functional, organism-based, Red blood cell
Details: W2, Erythrocyte
IC50 less than 1000 nM is 1; IC50 greater than or equal to 1000 nM is 0.

Below are worked cases with known answers.
>>> qualitative_label("COc1cc(Nc2nc(OCc3cn(CCCNc4cccc5cc(Cl)ccc45)nn3)nc(N3CCOCC3)n2)cc(OC)c1")
0
>>> qualitative_label("Cc1cccc(C)c1Nc1nc(OCc2cn(CCNc3cccc4cc(Cl)ccc34)nn2)nc(N(C)C)n1")
0
>>> qualitative_label("COc1cc(Nc2nc(OCc3cn(CCCNc4cccc5cc(Cl)ccc45)nn3)nc(N(C)C)n2)cc(OC)c1")
0
>>> qualitative_label("Cc1cccc(C)c1Nc1nc(OCc2cn(CCCNc3cccc4cc(Cl)ccc34)nn2)nc(N(C)C)n1")
1

Q: Threshold test, IC50 < 1000 nM: `COc1cc(Nc2nc(OCc3cn(CCNc4cccc5cc(Cl)ccc45)nn3)nc(N(C)C)n2)cc(OC)c1`
Result: 0

====

Biological target: Prostaglandin G/H synthase 2 (Rattus norvegicus, UniProt P35355)
Sequence (P35355 whole entry): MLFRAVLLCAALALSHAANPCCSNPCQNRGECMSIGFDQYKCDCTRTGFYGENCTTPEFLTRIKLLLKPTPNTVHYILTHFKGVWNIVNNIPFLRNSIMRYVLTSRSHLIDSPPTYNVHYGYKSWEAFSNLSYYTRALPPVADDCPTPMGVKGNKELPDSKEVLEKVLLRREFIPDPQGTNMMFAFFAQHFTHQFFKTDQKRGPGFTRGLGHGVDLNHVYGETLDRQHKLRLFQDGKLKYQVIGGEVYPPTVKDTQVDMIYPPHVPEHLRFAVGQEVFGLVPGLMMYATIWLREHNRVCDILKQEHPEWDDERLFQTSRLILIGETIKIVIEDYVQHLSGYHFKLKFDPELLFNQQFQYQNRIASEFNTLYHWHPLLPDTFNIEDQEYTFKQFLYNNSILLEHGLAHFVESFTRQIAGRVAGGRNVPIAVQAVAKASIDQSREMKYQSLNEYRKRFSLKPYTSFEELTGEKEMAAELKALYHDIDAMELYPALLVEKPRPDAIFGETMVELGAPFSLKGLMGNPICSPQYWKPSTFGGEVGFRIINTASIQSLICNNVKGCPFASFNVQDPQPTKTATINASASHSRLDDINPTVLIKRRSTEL
Assay: Inhibition of COX2 in rat macrophages using arachidonic acid as substrate preincubated with compound for 30 mins followed by substrate addition and measured after 20 mins by EIA
experimental-readout: IC50 (nM)
Use nM as the unit, but write only the number.

Q: State, in one line, measured IC50 of `CS(=O)(=O)c1ccc(-c2nc(SCCN(O)C(N)=O)nn2-c2ccc(Br)cc2)cc1`
Result: 150

====

Target: Polyunsaturated fatty acid 5-lipoxygenase (Rattus norvegicus, UniProt P12527)
Sequence (P12527 whole entry): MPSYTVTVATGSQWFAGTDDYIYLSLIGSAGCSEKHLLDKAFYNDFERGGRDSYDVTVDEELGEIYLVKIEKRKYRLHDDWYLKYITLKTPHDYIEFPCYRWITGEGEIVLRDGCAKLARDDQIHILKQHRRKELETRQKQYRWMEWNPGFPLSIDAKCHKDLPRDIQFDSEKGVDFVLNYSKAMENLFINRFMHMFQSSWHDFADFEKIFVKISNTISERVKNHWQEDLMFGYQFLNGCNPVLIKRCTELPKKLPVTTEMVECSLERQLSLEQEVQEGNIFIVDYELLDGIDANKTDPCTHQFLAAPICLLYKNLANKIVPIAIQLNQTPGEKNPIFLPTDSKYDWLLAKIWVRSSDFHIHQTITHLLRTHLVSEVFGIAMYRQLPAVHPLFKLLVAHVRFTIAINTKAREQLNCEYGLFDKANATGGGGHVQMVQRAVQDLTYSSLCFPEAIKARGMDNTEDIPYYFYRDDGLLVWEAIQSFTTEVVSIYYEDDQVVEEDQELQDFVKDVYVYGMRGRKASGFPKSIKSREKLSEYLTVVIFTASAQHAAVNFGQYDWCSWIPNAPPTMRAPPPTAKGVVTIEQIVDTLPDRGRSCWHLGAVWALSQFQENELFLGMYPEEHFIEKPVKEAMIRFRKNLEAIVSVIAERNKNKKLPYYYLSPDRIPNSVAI
Test: Inhibition of 5-LOX in Sprague-Dawley rat leukocytes preincubated for 30 mins followed by calcium ionophore A23187 addition and measured after 20 mins by EIA
experimental-readout: IC50 (nM)
Express it in nM; write the number only.

Q: Item `CS(=O)(=O)c1ccc(-c2nc(SCCN(O)C(N)=O)nn2-c2ccc(Br)cc2)cc1` : provide IC50
Result: 850

====

Tested on: Mycobacterium tuberculosis
Assay: Antibacterial activity against Mycobacterium tuberculosis H37Rv
Type: functional
experimental-readout: MIC (µg/mL)
Respond with the bare value in µg/mL.

>>> recorded_result("O=C1Oc2cc(OCCN(N3CCOCC3)N3CCOCC3)ccc2C2c3ccccc3OC12 (stereo not given)")
3.12
>>> recorded_result("O=C1Nc2cc3c(-c4ccccc4)c(-c4ccccc4)oc(=O)c3cc2C(c2ccc(Cl)cc2)N1 (stereo not given)")
50

From here, focus on the item given below.
Q: GET MIC | system: Mycobacterium tuberculosis | item: O=C(NN1C(=O)CSC1c1ccc([N+](=O)[O-])cc1)c1ccc(NCN2c3ccccc3Sc3ccccc32)cc1 (stereo not given)
Result: 3.12

====

Test system: Aspergillus niger
Test: Antifungal activity against Aspergillus niger assessed as zone of inhibition
Format: functional
experimental-readout: inhibition zone (IZ) (mm)
Write it as a number; the unit mm goes unstated.

Consider the following illustrative entries.
>>> recorded_result("COc1ccc(-c2nc(-c3ccccc3)c(-c3ccccc3)n2C(NN(c2ccccc2)c2cccc3ccccc23)c2ccccc2)c(OC)c1OC (stereo not given)")
24
>>> recorded_result("COc1ccc(-c2nc(-c3ccccc3)c(-c3ccccc3)n2C(NN2CCNCC2)c2ccccc2)c(OC)c1OC (stereo not given)")
27
>>> recorded_result("COc1ccc(-c2nc(-c3ccccc3)c(-c3ccccc3)n2C(NN(c2ccccc2)c2ccccc2)c2ccccc2)c(OC)c1OC (stereo not given)")
27
>>> recorded_result("COc1ccc(-c2nc(-c3ccccc3)c(-c3ccccc3)n2C(NN2CCCCC2)c2ccccc2)c(OC)c1OC (stereo not given)")
26

Q: Output measured inhibition zone (IZ) for this item: `COC1=CC(=O)C[C@@H](C)[C@]12Oc1c(Cl)c(OC)cc(OC)c1C2=O`
Result: 36
